Listed here: items and their measured plasma concentration.
# Protocol Text: Plasma pharmacokinetics after single oral dose of Δ8-THCV in MCT oil (LC-MS/MS, non-compartmental analysis)
# Assay type: in vivo, human
# Condition Parameters: Predose; 50 mg Δ8-THCV dose; Median (IQ Range)
Measurement Label: plasma concentration

[[record]]
compound = "CCCc1cc(O)c2c(c1)OC(C)(C)[C@@H]1CC=C(CO)C[C@@H]21 (racemic) [11-OH-Δ8-THCV, (±)-11-hydroxy-Δ8-THCV]"
measurement_label = "plasma concentration"
meas_value = "0 (0–0) ng/mL"

[[record]]
compound = "CCCc1cc(O)c2c(c1)OC(C)(C)[C@@H]1CCC(C)=C[C@@H]21 [Δ9-THCV, Δ9-tetrahydrocannabivarin]"
measurement_label = "plasma concentration"
meas_value = "0 (0–0) ng/mL"

[[record]]
compound = "CCCc1cc(O)c2c(c1)OC(C)(C)[C@@H]1CC=C(C(=O)O)C[C@@H]21 [Δ8-THCV-COOH, 11-nor-9-carboxy-Δ8-THCV]"
measurement_label = "plasma concentration"
meas_value = "0 (0–0.9) ng/mL"


----------
# Protocol Text: Plasma pharmacokinetics after single oral dose of Δ8-THCV in MCT oil (LC-MS/MS, non-compartmental analysis)
# Format: in vivo, human
# Condition Parameters: human, plasma, oral, 100 mg, 1 h; 100 mg Δ8-THCV dose; Median (IQ Range)
Listed here: items and their measured concentration at 1 h.
Measurement Label: concentration at 1 h (ng/mL)

[[record]]
molecule = "CCCc1cc(O)c2c(c1)OC(C)(C)[C@@H]1CC=C(CO)C[C@@H]21 (racemic) [11-OH-Δ8-THCV, (±)-11-hydroxy-Δ8-THCV]"
readout_unit = "ng/mL"
meas_value = 0.5

[[record]]
molecule = "CCCc1cc(O)c2c(c1)OC(C)(C)[C@@H]1CCC(C)=C[C@@H]21 [Δ9-THCV, Δ9-tetrahydrocannabivarin]"
readout_unit = "ng/mL"
meas_value = 0

[[record]]
molecule = "CCCc1cc(O)c2c(c1)OC(C)(C)[C@@H]1CC=C(C(=O)O)C[C@@H]21"
readout_unit = "ng/mL"
meas_value = 79.5

[[record]]
molecule = "CCCCCc1cc(O)c2c(c1)OC(C)(C)[C@@H]1CC=C(C(=O)O)CC21 (single isomer, unassigned; (+)) [Δ8-THC-COOH, (+)-11-nor-Δ8-THC-9-carboxylic acid]"
readout_unit = "ng/mL"
meas_value = 0

[[record]]
molecule = "CCCc1cc(O)c2c(c1)OC(C)(C)[C@@H]1CCC(C(=O)O)=C[C@@H]21"
readout_unit = "ng/mL"
meas_value = 1.9

[[record]]
molecule = "CCCc1cc(O)c2c(c1)OC(C)(C)[C@@H]1CC=C(C)C[C@@H]21 [Δ8-THCV, Δ8-tetrahydrocannabivarin]"
readout_unit = "ng/mL"
meas_value = 2.1


----------
Listed here: items and their measured Clast (last quantifiable concentration).
# Protocol Text: Plasma pharmacokinetics after single oral dose of Δ8-THCV in MCT oil (LC-MS/MS, non-compartmental analysis)
# Assay type: in vivo, human
# Set-up: unit not given here
# Condition Parameters: 100 mg single oral Δ8-THCV in MCT oil; plasma; Mean (±SD)
Measurement Label: Clast (last quantifiable concentration)

[[record]]
molecule = "CCCc1cc(O)c2c(c1)OC(C)(C)[C@@H]1CC=C(C(=O)O)C[C@@H]21"
meas_value = "319 (±118)"

[[record]]
molecule = "CCCCCc1cc(O)c2c(c1)OC(C)(C)[C@@H]1CC=C(C(=O)O)CC21 (single isomer, unassigned; (+)) [Δ8-THC-COOH, (+)-11-nor-Δ8-THC-9-carboxylic acid]"
meas_value = "1.3 (±0.2)"

[[record]]
molecule = "CCCc1cc(O)c2c(c1)OC(C)(C)[C@@H]1CCC(C)=C[C@@H]21 [Δ9-THCV, Δ9-tetrahydrocannabivarin]"
meas_value = "1.1 (±0.5)"

[[record]]
molecule = "CCCc1cc(O)c2c(c1)OC(C)(C)[C@@H]1CC=C(C)C[C@@H]21 [Δ8-THCV, Δ8-tetrahydrocannabivarin]"
meas_value = "4.1 (±3.1)"

[[record]]
molecule = "CCCc1cc(O)c2c(c1)OC(C)(C)[C@@H]1CCC(C(=O)O)=C[C@@H]21"
meas_value = "10.8 (±3.7)"

[[record]]
molecule = "CCCc1cc(O)c2c(c1)OC(C)(C)[C@@H]1CC=C(CO)C[C@@H]21 (racemic) [11-OH-Δ8-THCV, (±)-11-hydroxy-Δ8-THCV]"
meas_value = "1.4 (±0.9)"


Recorded values, source paper PMC11676667.
